src = patent US20080194482A1

Molecular target: T1, rat VPAC2 receptor (rat, UniProt P35000 23-437)
T1 sequence (looked up): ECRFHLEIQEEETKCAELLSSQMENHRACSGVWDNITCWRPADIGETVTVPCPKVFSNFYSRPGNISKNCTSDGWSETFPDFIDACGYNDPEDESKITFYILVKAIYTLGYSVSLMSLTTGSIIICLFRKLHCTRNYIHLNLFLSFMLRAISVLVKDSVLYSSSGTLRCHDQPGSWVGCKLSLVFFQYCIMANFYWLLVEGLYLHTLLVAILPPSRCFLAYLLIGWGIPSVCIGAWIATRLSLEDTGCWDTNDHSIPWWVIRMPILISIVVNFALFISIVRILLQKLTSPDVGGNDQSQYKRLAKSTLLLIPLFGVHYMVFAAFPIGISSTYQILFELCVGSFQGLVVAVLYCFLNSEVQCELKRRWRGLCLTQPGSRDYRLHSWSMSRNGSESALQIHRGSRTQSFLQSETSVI
Test: cell-based or functional assay
Square brackets hold non-standard residues; d marks the D form. Ends that are not written are not given here. * marks the point of attachment. Orn = NCCC[C@H](N)C(=O)O; Hexanoyl = CCCCCC(=O)*; Aib = CC(C)(N)C(=O)O
MEASURED PROPERTY: Rat VPAC2 Receptor: DiscoveRx (EC50; nM), cAMP generation
Only the number, expressed in nM, is required.

Some binders with recorded Rat VPAC2 Receptor: DiscoveRx (EC50; nM), cAMP generation:
INSERT INTO assay_data (binder, quantity_unit, experimental_value) VALUES
  ('HSDAVFTDNYTXLRXQVAAXKYLQSSXNXGGPSSGAPPPS (N-terminal hexanoyl (C6); Orn at 12, 27 and 29; Aib at 15 and 20) [VPAC2 receptor peptide agonist P382]', 'nM', 0.37),
  ('Hexanoyl-HSDAVFTDNYTFLR[Aib]QVAA[Aib]KYLQSI[Orn]N[Orn]GGPSSGAPPPS [VPAC2 receptor peptide agonist P369]', 'nM', 8.09),
  ('HSDAVFTDNYTXLRXQVAAXKYSQSIXNXGGPSSGAPPPS (N-terminal hexanoyl (C6); Orn at 12, 27 and 29; Aib at 15 and 20) [VPAC2 receptor peptide agonist P384]', 'nM', 8.05),
  ('Hexanoyl-HSDAVFTDQYT[Orn]LR[Aib]QVAA[Aib]KYLQSI[Orn]Q[Orn]GGPSSGAPPPS [VPAC2 receptor peptide agonist P363]', 'nM', 0.09),
  ('HSDAVFTDQYTXLRXQVAAXXYLQSIXXGGPSSGAPPPS (N-terminal hexanoyl (C6); Orn at 12, 21, 27 and 28; Aib at 15 and 20) [VPAC2 receptor peptide agonist P396]', 'nM', 0.05);

As a next step, examine the binder that follows.
GET /value?item= HSDAVFTDNYTXLRXQVAAXKYLQSIKNKRYGGPSSGAPPPS (N-terminal hexanoyl (C6); hR (homoarginine) at 12; Aib at 15 and 20) [VPAC2 receptor peptide agonist P343] &field=Rat VPAC2 Receptor: DiscoveRx (EC50; nM), cAMP generation returns 0.15
